Every entry's value here was drawn from ChEMBL document CHEMBL4414647.

pEC50 listing for selected compounds.
Experiment: Inhibition of RANKL-induced osteoclast differentiation in ICR mouse bone marrow macrophage assessed as reduction in multinucleated TRAP+ cells preincubated for 3 days for RANKL stimulation followed by compound addition and measured after 1 day by TRAP staining based microscopy
Type: functional
Conditions: BMDM, read-out: ED50 (the source's name)
pEC50: −log10 of the molar value.
measured-endpoint: pEC50

1) Cc1c2c(c(O)c3c1O[C@@]1(C)CC[C@H]4C(C)(C)C(=O)CC[C@]4(C)[C@H]1C3)C(=O)OC2: 5.55 to 5.72
2) COc1c2c(c(C)c3c1C(=O)OC3)O[C@@]1(C)C[C@@H](O)[C@H]3C(C)(C)C(=O)CC[C@]3(C)[C@H]1C2: 5.55 to 5.72
3) COC(=O)CC[C@]1(C)[C@H]2Cc3c(c(C)c4c(c3OC)C(=O)OC4)O[C@@]2(C)CC[C@H]1C(C)(C)O: 5.55 to 5.72
4) COc1c2c(c(C)c3c1C(=O)OC3)O[C@@]1(C)CC[C@H]3C(C)(C)OC(=O)CC[C@]3(C)[C@H]1C2: 5.55 to 5.72
5) COc1c2c(c(C)c3c1C(=O)OC3)O[C@@]1(C)CC[C@@]3(O)C(C)(C)C(=O)CC[C@]3(C)[C@H]1C2: 5.55 to 5.72
6) COc1c2c(c(C)c3c1C(=O)OC3)O[C@@]1(C)CC[C@H]3C(C)(C)[C@@H](O)CC[C@]3(C)[C@H]1C2: 5.55 to 5.72
